Target: T1, recombinant human BCMA, in house material (human, UniProt Q02223 4-53, limits assumed)
T1 construct: also called Human in house BCMA; In house human BCMA
T1 sequence (Q02223 4-53 limits assumed): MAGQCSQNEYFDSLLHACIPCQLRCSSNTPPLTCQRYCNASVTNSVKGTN
Assay: ProteOn SPR run 1, antibody captured on Protein A, 25C
pKd: −log10 of the molar value.

>  <binder>
CA8 humanised J2M1 (antibody, human IgG1, kappa, V domains shown, Humanised CA8, heavy chain J2 with light chain M1, human IgG1 kappa; also called CA8 J2M1) VH: QVQLVQSGAEVKKPGSSVKVSCKASGYTFTNYWMHWVRQAPGQGLEWMGATYRGHSDTYYNQKFKGRVTITADKSTSTAYMELSSLRSEDTAVYYCTRGAIYNGYDVLDNWGQGTLVTVSS VL: DIQMTQSPSSLSASVGDRVTITCSASQDISNYLNWYQQKPGKAPKLLIYYTSNLHSGVPSRFSGSGSGTDYTLTISSLQPEDFATYYCQQYRKLPWTFGQGTKLEIKR

>  <pKd>
9.07

$$$$
>  <binder>
S307118G03 humanised H3L0 (antibody, human IgG1, kappa, V domains shown, Humanised, human IgG1 kappa) VH: QVQLVQSGAEVKKPGSSVKVSCKASGYTFTDYYMKWVRQAPGQGLEWIGEIYPNNGGITYNQKFKGRATLTVDKSTSTAYMELSSLRSEDTAVYYCANGYEFVYWGQGTLVTVSS VL: DIQMTQSPSSLSASVGDRVTITCSASQGISNYLNWYQQKPGKAPKLLIYYTSSLHSGVPSRFSGSGSGTDFTLTISSLQPEDFATYYCQQYSKLPWTFGQGTKLEIKR

>  <pKd>
8.27

$$$$
>  <binder>
CA8 humanised J3M0 (antibody, human IgG1, kappa, V domains shown, Humanised CA8, heavy chain J3 with light chain M0, human IgG1 kappa; also called CA8 J3M0) VH: QVQLVQSGAEVKKPGSSVKVSCKGSGYTFTNYWMHWVRQAPGQGLEWMGATYRGHSDTYYNQKFKGRVTITADTSTSTAYMELSSLRSEDTAVYYCTRGAIYNGYDVLDNWGQGTLVTVSS VL: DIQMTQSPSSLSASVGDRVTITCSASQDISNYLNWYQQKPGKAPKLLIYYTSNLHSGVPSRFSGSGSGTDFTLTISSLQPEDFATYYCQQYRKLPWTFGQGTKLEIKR

>  <pKd>
8.86

$$$$
